# system.under.test: T1, human vascular endothelial growth factor receptor-2 Fc chimera (KDR-Fc) (human, UniProt P35968 20-764)
# T1 construct: range 1-764; also called human VEGFR-2; VEGF-R2-Fc; not shown: human IgG1 Fc
# method.summary: radioactive equilibrium binding, 1 nM KDR-Fc
For each of the binders below, state its Binding to 1 nM KDR, %.
Respond with the bare value in %.

Request: May I ask what Binding to 1 nM KDR, % has been recorded for 3′H3 PR4 (designed binder, Del 1-8) EVVAATPTSLLISWRHPHFPTRYYRITYGETGGNSPVQEFTVPLQPPTATISGLKPGVDYTITGYAVTLGLNDRELMTPISINYRT ?
Response: 36

Request: May I ask what Binding to 1 nM KDR, % has been recorded for K12 (designed binder, Del 1-8) EVVAATPTSLLISWRHPHFPTRYYRITYGETGGNSPVQEFTVPLQPPTATISGLKPGVDYTITGYAVTDVYNDHEIKTPISINYRT ?
Response: 29

Request: May I ask what Binding to 1 nM KDR, % has been recorded for 2′Del F8 PR4 (designed binder, Del 1-8) EVVAATPTSLLISWRHPHFPTRYYRITYGETGGNSPVQEFTVPLQPPTATISGLKPGVDYTITGYAVTAGPGAHELLTPISINYRT ?
Response: 42

Request: May I ask what Binding to 1 nM KDR, % has been recorded for 1′DelAl PR4 (designed binder, Del 1-8) EVVAATPTSLLISWRHPHFPTRYYRITYGETGGNSPVQEFTVPLQPPTATISGLKPGVDYTITGYAVTVAQNDHELLTPISINYRT ?
Response: 14

Request: May I ask what Binding to 1 nM KDR, % has been recorded for 2′DelC3 PR4 (designed binder, Del 1-8) EVVAATPTSLLISWRHPHFPTRYYRITYGETGGNSPVQEFTVPLQPPTATISGLKPGVDYTITGYAVTWAQNGRELLTPISINYRT ?
Response: 29

Request: May I ask what Binding to 1 nM KDR, % has been recorded for 4′H12 PR4 (designed binder, Del 1-8) EVVAATPTSLLISWRHPHFPTRYYRITYGETGGNSPVQEFTVPLQPPTATISGLKPGVDYTITGYAVTVAHNDHELLTPISINYRT ?
Response: 17

Request: May I ask what Binding to 1 nM KDR, % has been recorded for 3A3 PR3 (designed binder, Del 1-8) EVVAATPTSLLISWRHPHFPTRYYRITYGETGGNSPVQEFTVPLQPPTATISGLKPGVDYTITGYAVTLAYNGREIITPISINYRT ?
Response: 23

Request: May I ask what Binding to 1 nM KDR, % has been recorded for 2′Del F11 PR4 (designed binder, Del 1-8) EVVAATPTSLLISWRHPHFPTRYYRITYGETGGNSPVQEFTVPLQPPTATISGLKPGVDYTITGYAVTMGQNDKELITPISINYRT ?
Response: 27

Request: May I ask what Binding to 1 nM KDR, % has been recorded for 3′G1 PR4 (designed binder, Del 1-8) EVVAATPTSLLISWRHPHFPTRYYRITYGETGGNSPVQEFTVPLQPPTATISGLKPGVDYTITGYAVTLALNGHELFTPISINYRT ?
Response: 19

Ref: patent US20140179896A1
